I'd appreciate it if you could supply IC50 values for the items below.
- Measurement Target: PI3K γ (Homo sapiens (Human), UniProt P48736)
- Sequence (P48736 whole entry, species assumed): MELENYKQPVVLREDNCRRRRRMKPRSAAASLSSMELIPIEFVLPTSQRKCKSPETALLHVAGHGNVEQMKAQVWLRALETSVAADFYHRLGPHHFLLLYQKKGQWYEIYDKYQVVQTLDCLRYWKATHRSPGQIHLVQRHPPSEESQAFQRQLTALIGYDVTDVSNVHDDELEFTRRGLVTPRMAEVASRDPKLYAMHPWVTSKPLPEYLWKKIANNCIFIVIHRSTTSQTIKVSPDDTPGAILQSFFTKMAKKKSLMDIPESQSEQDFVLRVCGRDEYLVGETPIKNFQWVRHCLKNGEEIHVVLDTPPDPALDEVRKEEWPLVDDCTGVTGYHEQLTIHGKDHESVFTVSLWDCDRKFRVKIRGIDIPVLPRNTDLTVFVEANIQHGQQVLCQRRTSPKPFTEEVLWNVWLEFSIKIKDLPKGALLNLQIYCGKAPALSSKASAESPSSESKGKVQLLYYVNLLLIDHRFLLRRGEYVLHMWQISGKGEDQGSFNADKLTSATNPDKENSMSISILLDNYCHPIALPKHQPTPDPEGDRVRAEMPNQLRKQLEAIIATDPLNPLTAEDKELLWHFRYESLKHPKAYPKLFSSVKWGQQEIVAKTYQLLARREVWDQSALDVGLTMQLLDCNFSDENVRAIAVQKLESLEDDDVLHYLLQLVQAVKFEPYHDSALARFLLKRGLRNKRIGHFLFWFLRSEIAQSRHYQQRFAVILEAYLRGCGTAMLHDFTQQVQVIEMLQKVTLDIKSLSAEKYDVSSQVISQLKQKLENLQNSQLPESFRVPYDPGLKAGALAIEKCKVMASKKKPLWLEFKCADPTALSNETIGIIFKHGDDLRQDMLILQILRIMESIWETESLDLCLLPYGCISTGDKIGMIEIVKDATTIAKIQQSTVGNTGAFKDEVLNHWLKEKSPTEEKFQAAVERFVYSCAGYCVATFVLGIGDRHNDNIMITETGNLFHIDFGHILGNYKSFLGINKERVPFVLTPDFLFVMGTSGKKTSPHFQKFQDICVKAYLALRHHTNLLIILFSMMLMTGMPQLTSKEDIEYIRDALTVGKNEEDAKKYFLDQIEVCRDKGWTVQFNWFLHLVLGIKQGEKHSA
- Sequence (Q8WYR1 whole entry partner, species assumed): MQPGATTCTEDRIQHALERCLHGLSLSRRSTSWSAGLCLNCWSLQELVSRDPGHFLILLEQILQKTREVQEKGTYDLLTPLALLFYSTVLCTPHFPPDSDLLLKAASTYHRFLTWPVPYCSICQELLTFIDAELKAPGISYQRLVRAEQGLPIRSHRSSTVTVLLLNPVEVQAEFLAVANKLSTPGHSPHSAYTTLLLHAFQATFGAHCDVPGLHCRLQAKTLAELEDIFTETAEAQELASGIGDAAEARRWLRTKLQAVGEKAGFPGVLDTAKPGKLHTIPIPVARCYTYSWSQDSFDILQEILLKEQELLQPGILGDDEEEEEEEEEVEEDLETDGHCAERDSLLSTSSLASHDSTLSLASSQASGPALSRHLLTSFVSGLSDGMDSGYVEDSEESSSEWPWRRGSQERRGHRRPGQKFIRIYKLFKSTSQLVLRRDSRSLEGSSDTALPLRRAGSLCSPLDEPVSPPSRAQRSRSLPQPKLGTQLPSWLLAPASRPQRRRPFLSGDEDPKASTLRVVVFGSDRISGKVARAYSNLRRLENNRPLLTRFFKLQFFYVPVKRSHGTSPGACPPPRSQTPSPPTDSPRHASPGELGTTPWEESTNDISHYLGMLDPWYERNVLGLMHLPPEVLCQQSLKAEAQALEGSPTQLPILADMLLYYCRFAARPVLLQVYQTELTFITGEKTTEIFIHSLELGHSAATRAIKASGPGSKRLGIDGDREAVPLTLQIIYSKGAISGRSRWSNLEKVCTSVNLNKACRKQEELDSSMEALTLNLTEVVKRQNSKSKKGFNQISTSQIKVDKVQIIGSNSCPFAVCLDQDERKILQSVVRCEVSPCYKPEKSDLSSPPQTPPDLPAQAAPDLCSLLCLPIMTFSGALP
- Protocol Description: PI3K enzyme inhibition assay (HTRF TR-FRET)
- Format: biochemical
- Test Parameters: read-out: IC50 Values for PI3K inhibition at isozyme indicated, PI3K γ
# output: numeric value plus its unit

{"Compound": "COCCOCCOCC#Cc1cccc2nc(Cn3nc(-c4cccc(O)c4)c4c(N)ncnc43)n(Cc3ccccc3F)c(=O)c12 [Example 50, reference compound]", "IC50": "120 nM"}

Test item COCCOCCOCC#Cc1cccc2nc(Cn3nc(-c4cc(O)cc(F)c4)c4c(N)ncnc43)n(Cc3ccccc3C(F)(F)F)c(=O)c12 ; PI3K γ (Homo sapiens (Human), UniProt P48736); reported IC50 was 28 nM

###

Exercise: for every item that follows, state its recorded IC50.
- Measurement Target: PI3K δ (Homo sapiens (Human))
- Protocol Description: PI3K enzyme inhibition assay (HTRF TR-FRET)
- Assay type: biochemical
- Test Parameters: read-out: IC50 Values for PI3K inhibition at isozyme indicated, PI3K δ
Numbers only, in nM.

{"Molecule": "COCCOCCOCC#Cc1cccc2nc(Cn3nc(-c4cccc(O)c4)c4c(N)ncnc43)n(Cc3ccccc3F)c(=O)c12 [Example 50, reference compound]", "Measurement Target": "PI3K δ (Homo sapiens (Human))", "Reported": 5.7}

# context switch: different molecule, same IC50
The reported IC50 value, PI3K δ (Homo sapiens (Human)), for COCCOCCOCC#Cc1cccc2nc(Cn3nc(-c4cc(O)cc(F)c4)c4c(N)ncnc43)n(Cc3ccccc3C(F)(F)F)c(=O)c12 reads 2.5

###

Kindly state pIC50 for each of the entries shown.
- Measurement Target: PI3K γ (Homo sapiens (Human), UniProt P48736)
- Protocol Description: PI3K enzyme inhibition assay (HTRF TR-FRET)
- Format: biochemical
- Test Parameters: read-out: PI3 Kinase Inhibition IC50 value at state isozyme, γ
Numbers only, as −log10 of the molar value.

{"Query Smiles": "Nc1ncnc2c1c(-c1cc(O)cc(F)c1)nn2Cc1nc2cccc(C#CCOCCOCCO)c2c(=O)n1Cc1ccccc1C(F)(F)F", "Reported": 6.24}

Consider the additional compound presented here.
Sure, the documented pIC50 for COCCOCCOCC#Cc1cccc2nc(Cn3nc(-c4cc(O)cc(F)c4)c4c(N)ncnc43)n(Cc3ccccc3C(F)(F)F)c(=O)c12 is 7.55

###

- Measurement Target: PI3K α (Homo sapiens (Human))
- Sequence (P42336 whole entry, species assumed): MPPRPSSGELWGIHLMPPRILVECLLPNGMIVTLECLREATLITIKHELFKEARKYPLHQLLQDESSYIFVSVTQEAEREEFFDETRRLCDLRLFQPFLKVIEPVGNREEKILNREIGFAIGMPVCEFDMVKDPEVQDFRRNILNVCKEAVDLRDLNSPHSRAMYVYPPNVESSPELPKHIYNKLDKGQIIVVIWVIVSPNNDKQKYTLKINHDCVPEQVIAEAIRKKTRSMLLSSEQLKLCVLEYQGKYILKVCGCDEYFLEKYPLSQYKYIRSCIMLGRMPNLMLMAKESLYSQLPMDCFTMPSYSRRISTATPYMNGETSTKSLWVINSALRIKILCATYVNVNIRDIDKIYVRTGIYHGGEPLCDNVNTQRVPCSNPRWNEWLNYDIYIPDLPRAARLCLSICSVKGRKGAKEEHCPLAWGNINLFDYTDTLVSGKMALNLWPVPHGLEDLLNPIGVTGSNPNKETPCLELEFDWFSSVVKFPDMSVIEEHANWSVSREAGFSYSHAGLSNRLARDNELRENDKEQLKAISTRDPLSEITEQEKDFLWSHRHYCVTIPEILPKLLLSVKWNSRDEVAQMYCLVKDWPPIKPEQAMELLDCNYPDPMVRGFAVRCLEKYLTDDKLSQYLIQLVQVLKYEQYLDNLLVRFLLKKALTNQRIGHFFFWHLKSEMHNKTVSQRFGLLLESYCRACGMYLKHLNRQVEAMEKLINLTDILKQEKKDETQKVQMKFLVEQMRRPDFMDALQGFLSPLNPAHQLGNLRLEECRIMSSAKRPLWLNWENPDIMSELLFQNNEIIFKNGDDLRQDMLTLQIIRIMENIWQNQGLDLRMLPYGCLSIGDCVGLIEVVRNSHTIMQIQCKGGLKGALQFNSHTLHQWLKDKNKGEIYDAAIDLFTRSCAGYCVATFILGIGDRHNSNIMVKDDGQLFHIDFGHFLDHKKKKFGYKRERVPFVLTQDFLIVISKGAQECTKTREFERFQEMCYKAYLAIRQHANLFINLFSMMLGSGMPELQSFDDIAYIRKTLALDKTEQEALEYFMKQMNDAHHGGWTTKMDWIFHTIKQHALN
- Sequence (P27986 whole entry partner, species assumed): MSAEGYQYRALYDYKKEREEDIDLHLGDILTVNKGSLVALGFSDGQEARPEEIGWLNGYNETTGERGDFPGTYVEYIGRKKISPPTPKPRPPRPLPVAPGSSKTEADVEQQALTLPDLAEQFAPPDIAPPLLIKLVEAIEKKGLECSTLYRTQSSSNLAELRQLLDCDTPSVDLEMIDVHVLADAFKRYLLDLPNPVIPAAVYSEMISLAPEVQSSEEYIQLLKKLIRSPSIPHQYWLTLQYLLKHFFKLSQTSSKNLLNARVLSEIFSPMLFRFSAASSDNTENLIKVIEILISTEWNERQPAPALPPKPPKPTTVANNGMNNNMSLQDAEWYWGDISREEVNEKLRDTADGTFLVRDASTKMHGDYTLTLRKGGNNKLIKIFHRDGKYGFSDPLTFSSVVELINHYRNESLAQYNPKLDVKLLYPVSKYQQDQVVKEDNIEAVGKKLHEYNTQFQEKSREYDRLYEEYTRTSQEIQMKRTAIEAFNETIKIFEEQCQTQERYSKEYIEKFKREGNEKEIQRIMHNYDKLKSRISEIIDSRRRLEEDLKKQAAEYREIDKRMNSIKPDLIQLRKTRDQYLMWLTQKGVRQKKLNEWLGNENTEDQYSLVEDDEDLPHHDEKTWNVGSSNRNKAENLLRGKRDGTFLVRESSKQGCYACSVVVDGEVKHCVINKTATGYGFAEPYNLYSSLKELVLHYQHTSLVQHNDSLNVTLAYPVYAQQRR
- Protocol Description: PI3K enzyme inhibition assay (HTRF TR-FRET)
- Assay type: biochemical
- Test Parameters: read-out: IC50 Values for PI3K inhibition at isozyme indicated, PI3K α
Quantity Kind: IC50 (nM)
Answers are plain numbers, in nM.

IC50 reading for COCCOCCOCC#Cc1cccc2nc(Cn3nc(-c4cccc(O)c4)c4c(N)ncnc43)n(Cc3ccccc3F)c(=O)c12 [Example 50, reference compound] : 653

###

- Measurement Target: PI3K δ (Homo sapiens (Human))
- Protocol Description: PI3K enzyme inhibition assay (HTRF TR-FRET)
- Type: biochemical
- Test Parameters: read-out: PI3 Kinase Inhibition IC50 value at state isozyme, δ
Quantity Kind: IC50 (nM)
Answers are plain numbers, in nM.

{"Query Smiles": "Nc1ncnc2c1c(-c1cc(O)cc(F)c1)nn2Cc1nc2cccc(C#CCOCCOCCO)c2c(=O)n1Cc1ccccc1C(F)(F)F", "IC50 / nM": 17}

Pending compound:
Measured IC50 (PI3K δ (Homo sapiens (Human))), entry COCCOCCOCC#Cc1cccc2nc(Cn3nc(-c4cc(O)cc(F)c4)c4c(N)ncnc43)n(Cc3ccccc3C(F)(F)F)c(=O)c12 : 2.5

###

- Measurement Target: PI3K β (Homo sapiens (Human), UniProt P42338)
- Sequence (P42338 whole entry, species assumed): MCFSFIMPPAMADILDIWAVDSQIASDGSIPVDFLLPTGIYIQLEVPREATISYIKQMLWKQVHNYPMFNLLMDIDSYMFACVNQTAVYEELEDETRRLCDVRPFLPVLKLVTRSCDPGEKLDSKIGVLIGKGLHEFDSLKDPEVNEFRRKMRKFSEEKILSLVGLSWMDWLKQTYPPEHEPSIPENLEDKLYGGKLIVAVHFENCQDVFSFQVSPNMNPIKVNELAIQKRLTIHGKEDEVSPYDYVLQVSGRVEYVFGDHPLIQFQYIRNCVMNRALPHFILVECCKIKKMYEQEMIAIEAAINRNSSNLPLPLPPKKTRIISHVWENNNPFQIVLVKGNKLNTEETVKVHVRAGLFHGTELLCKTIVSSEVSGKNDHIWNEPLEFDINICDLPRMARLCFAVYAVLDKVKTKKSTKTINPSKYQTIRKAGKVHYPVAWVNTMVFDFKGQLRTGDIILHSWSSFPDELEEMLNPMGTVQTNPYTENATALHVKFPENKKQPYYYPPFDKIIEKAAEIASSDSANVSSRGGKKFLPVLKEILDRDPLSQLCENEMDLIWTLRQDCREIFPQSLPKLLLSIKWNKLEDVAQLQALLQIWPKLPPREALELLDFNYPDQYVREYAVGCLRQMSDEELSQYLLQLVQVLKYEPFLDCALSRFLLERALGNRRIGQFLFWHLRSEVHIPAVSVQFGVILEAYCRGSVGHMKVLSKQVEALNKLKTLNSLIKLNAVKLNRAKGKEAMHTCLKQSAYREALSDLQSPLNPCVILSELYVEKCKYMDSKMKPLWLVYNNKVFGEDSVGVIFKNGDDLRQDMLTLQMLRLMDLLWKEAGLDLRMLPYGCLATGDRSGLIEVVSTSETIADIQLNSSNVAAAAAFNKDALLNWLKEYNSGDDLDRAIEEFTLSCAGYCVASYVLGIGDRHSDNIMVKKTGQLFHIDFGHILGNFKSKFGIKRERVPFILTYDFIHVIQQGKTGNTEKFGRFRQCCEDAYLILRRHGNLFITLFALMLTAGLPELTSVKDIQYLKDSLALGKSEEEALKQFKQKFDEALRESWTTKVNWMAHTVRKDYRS
- Sequence (P27986 whole entry partner, species assumed): as the sequence (P27986 whole entry partner, species assumed) above
- Protocol Description: PI3K enzyme inhibition assay (HTRF TR-FRET)
- Assay type: biochemical
- Test Parameters: read-out: IC50 Values for PI3K inhibition at isozyme indicated, PI3K β
- Experimental: The PI3K enzymes catalyse the phosphorylation of phosphatidylinositol 4,5-biphosphate (PIP2) to phosphatidylinositol 3,4,5-triphosphate (PIP3) in the presence of ATP and Mg^2+ ions. […] The results were calculated according to the formula: APC signal (emission at 665 nm)/europium signal (emission at 620 nm)×10^4. […]
Quantity Kind: IC50 (µM)
Numbers only, in µM.

Entry COCCOCCOCC#Cc1cccc2nc(Cn3nc(-c4cc(O)cc(F)c4)c4c(N)ncnc43)n(Cc3ccccc3C(F)(F)F)c(=O)c12 , IC50 reported as 4.89

###

- Measurement Target: UniProt O00329
- Protocol Description: PI3K δ cell based assay: H2O2-induced Akt phosphorylation in d-U937 cells
- Test Parameters: inhibition of induced Akt phosphorylation, H2O2 stimulus; read-out: REC50 values in d-U937 cells, H2O2 stimulus
Quantity Kind: EC50 (nM)
Answers are plain numbers, in nM.

Recorded EC50 (molecule COCCOCCOCC#Cc1cccc2nc(Cn3nc(-c4cc(O)cc(F)c4)c4c(N)ncnc43)n(Cc3ccccc3C(F)(F)F)c(=O)c12 ): 7.4
